Target: T1, RSV F glycoprotein (NUF4) (respiratory syncytial virus)
T1 chain 1: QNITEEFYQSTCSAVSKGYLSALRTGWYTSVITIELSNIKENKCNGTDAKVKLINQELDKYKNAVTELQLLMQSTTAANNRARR
T1 chain 2: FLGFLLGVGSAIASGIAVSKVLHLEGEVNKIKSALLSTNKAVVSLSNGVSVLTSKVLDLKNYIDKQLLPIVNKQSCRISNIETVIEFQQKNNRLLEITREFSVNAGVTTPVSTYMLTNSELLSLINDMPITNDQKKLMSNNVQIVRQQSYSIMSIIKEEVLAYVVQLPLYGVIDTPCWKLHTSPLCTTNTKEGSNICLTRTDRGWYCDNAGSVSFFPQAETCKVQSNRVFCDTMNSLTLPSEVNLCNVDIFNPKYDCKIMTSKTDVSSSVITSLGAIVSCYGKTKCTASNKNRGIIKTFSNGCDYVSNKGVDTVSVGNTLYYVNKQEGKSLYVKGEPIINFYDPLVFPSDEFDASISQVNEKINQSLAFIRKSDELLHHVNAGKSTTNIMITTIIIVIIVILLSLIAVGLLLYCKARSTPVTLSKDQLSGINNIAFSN
Test: SPR (BIAcore), mAb vs NUF4 (2:1)
MEASUREMENT_NAME: Kd (nM)
Report the value in nM with no unit label.

Enquiry: Requested read-out: Kd. Entry: A17d4(1) IgG (antibody, V domains shown) VH: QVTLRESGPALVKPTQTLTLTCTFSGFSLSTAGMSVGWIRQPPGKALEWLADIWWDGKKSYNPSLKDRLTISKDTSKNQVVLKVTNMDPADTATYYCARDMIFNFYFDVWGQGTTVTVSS VL: DIQMTQSPSTLSASVGDRVTITCLPSSRVGYMHWYQQKPGKAPKLLIYDTMYQSSGVPSRFSGSGSGTEFTLTISSLQPDDFATYYCFQGSGYPFTFGGGTKVEIKR
Return: 1.11

Enquiry: Okay, and A1e9 IgG (antibody, V domains shown, also called Ale9) VH: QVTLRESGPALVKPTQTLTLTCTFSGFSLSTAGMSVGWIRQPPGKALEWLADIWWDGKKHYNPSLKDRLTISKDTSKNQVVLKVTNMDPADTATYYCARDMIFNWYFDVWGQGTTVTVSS VL: DIQMTQSPSTLSASVGDRVTITCSLSSRVGYMHWYQQKPGKAPKLLIYDTFKLSSGVPSRFSGSGSGTEFTLTISSLQPDDFATYYCFQGSGYPFTFGGGTKVEIKR ?
Return: 4.22

Enquiry: Okay, and A12a6 IgG (antibody, V domains shown) VH: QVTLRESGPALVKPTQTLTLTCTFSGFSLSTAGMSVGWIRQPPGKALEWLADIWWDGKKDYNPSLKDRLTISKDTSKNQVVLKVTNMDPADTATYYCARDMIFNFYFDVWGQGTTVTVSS VL: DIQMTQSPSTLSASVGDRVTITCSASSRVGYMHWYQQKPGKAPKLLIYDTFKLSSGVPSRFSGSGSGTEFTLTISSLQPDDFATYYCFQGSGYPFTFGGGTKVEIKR ?
Return: 1.87

Enquiry: Okay, and A8c7 IgG (antibody, V domains shown) VH: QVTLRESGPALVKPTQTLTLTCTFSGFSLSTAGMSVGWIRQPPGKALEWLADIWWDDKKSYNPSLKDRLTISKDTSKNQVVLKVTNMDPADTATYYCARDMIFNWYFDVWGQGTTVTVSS VL: DIQMTQSPSTLSASVGDRVTITCSPSSRVGYMHWYQQKPGKAPKLLIYDTRYQSSGVPSRFSGSGSGTEFTLTISSLQPDDFATYYCFQGSGYPFTFGGGTKVEIKR ?
Return: 2.65
